Kindly state EC50 for each of the entries shown.
targetOrSystem: RXRβ (Mus musculus)
Construct: expressed in transfected cells; host or cells: CV-1 (monkey kidney)
Sequence (P28704 1-520): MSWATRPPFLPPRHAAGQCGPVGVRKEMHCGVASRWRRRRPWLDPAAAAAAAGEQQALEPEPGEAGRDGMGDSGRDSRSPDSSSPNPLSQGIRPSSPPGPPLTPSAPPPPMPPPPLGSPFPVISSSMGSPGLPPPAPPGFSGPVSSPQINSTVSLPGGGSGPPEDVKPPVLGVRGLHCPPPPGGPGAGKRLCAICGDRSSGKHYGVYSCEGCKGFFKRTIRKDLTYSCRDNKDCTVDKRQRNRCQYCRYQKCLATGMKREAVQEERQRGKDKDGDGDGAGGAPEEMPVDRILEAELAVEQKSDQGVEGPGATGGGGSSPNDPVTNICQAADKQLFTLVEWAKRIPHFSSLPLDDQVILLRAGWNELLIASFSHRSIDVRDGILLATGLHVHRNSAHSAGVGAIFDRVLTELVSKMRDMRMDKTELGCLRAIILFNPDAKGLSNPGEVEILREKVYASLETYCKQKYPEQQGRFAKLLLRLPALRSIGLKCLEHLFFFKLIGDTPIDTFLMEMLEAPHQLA
assayMethodText: Co-transfection (cis-trans) assay in CV-1 cells, RXRβ
Assay type: cell-based
experimentalConditions: RXRβ; CV-1 cells, luciferase reporter, 36 h; read-out: Potency
Answers are plain numbers, in nM.

// solved cases for EC50 follow
In: Lab note: need EC50 with RXRβ (Mus musculus) for entry CC(/C=C/C1(c2cc3c(cc2C)C(C)(C)CCC3(C)C)CC1)=C\C(=O)O [Compound 104] , please look it up.
Out: 13

In: Cool, now C=C(c1ccc(C(=O)Nc2ccc(O)cc2)cc1)c1cc2c(cc1C)C(C)(C)CCC2(C)C [3-Methyl-TTNEHBP (63)]
Out: 71

Field: next compound
In: Lab note: need EC50 with RXRβ (Mus musculus) for entry CC1=C(/C=C/C(=C\C=C\C(C)=C\C(=O)O)C(C)(C)C)C(C)(C)CCC1 [Compound 77] , please look it up.
Out: 11

----------
targetOrSystem: RXRβ (Mus musculus)
Construct: expressed in transfected cells; host or cells: CV-1 (monkey kidney)
assayMethodText: Co-transfection (cis-trans) assay in CV-1 cells, RXRβ
Type: cell-based
experimentalConditions: RXRβ; CV-1 cells, luciferase reporter, 36 h; read-out: Potency
Kindly state EC50 for each of the entries shown.

Dear reader, for each entry below, please note its EC50.
1. C/C(=C\c1ccc(C(=O)O)cc1)c1ccc2c(c1)C(C)(C)CCC2(C)C [TTNPB, reference compound]
2. Cc1cc2c(cc1C(=O)c1ccc(C(=O)Nc3ccc(O)cc3)cc1)C(C)(C)CCC2(C)C [3-Methyl-TTNCHBP]
3. C/C(=C/C=C/C(C)=C/C(=O)O)c1cc2c(cc1C)C(C)(C)CCC2(C)C [Compound 128]
4. CCCC(=C/C=C/C(C)=C/C(=O)O)/C=C/C1=C(C)CCCC1(C)C [Compound 74]

Out:
["> 10000 nM", "1100 nM", "22 nM", "6 nM"]

----------
targetOrSystem: RARβ (Homo sapiens)
Sequence (P10826 whole entry): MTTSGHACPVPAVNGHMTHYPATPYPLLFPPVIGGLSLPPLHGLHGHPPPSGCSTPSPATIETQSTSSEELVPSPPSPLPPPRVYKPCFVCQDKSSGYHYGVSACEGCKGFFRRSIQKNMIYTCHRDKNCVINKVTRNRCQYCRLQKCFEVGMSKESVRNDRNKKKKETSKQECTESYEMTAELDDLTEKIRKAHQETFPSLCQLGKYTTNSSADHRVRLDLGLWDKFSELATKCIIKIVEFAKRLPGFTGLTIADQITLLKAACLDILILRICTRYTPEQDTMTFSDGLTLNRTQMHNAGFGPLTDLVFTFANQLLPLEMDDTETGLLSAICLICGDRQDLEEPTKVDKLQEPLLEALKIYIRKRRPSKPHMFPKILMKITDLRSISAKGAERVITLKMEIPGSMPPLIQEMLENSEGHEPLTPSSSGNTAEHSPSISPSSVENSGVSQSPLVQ
assayMethodText: Co-transfection (cis-trans) assay in CV-1 cells, RARβ
experimentalConditions: CV-1 cells, luciferase reporter, 36 h, read-out: Potency
observedProperty: pEC50
Numbers only, as −log10 of the molar value.

// solved cases for pEC50 follow
In: // pEC50 lookup, key: CC1=C(/C=C/C(=C\C=C\C(C)=C\C(=O)O)C(C)C)C(C)(C)CCC1 [Compound 75]
Out: 6.74

In: Cool, now C=C(c1ccc(C(=O)Nc2ccc(O)cc2)cc1)c1cc2c(cc1C)C(C)(C)CCC2(C)C [3-Methyl-TTNEHBP (63)]
Out: 5.72

In: Cool, now C/C(=C/C=C/C(C)=C/C(=O)O)c1cc2c(cc1C)C(C)(C)CCC2(C)C [Compound 128]
Out: 6.74

In: Cool, now CCCC(=C/C=C/C(C)=C/C(=O)O)/C=C/C1=C(C)CCCC1(C)C [Compound 74]
Out: 7.42

Field: next compound
In: // pEC50 lookup, key: CC1=C(/C=C/C2(C/C=C/C(C)=C/C(=O)O)CC2)C(C)(C)CCC1 [Compound 110]
Out: 6.35

----------
targetOrSystem: RXRγ (Mus musculus)
Construct: expressed in transfected cells; host or cells: CV-1 (monkey kidney)
Sequence (P28705 1-463): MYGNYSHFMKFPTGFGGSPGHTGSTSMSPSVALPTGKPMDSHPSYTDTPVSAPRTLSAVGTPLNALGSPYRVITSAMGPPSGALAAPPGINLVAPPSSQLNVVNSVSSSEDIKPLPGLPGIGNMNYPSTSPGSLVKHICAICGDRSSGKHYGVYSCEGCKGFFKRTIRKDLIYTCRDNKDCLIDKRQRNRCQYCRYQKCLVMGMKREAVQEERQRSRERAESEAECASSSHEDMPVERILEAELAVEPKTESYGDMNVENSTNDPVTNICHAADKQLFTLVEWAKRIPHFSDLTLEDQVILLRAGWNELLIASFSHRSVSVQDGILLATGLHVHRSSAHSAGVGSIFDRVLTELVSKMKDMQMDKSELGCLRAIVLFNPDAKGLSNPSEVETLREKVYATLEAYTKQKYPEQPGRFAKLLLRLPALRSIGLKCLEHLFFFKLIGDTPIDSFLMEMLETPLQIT
assayMethodText: Co-transfection (cis-trans) assay in CV-1 cells, RXRγ
Assay type: cell-based
experimentalConditions: RXRγ; CV-1 cells, luciferase reporter, 36 h; read-out: Potency
observedProperty: pEC50
Answers are plain numbers, as −log10 of the molar value.

In: // pEC50 lookup, key: CC1=C(/C=C/C2(C/C=C/C(C)=C/C(=O)O)CC2)C(C)(C)CCC1
Out: 6.70

In: Cool, now CC1=C(/C=C/C(=C\C=C\C(C)=C\C(=O)O)C(C)(C)C)C(C)(C)CCC1
Out: 8.05

In: Cool, now CC(/C=C/C=C(\c1ccc2c(c1)C(C)(C)CCC2(C)C)C(C)C)=C\C(=O)O
Out: 7.62

In: Cool, now CCCC(=C/C=C/C(C)=C/C(=O)O)/C=C/C1=C(C)CCCC1(C)C
Out: 7.92

In: Cool, now C=C(c1ccc(C(=O)Nc2ccc(O)cc2)cc1)c1cc2c(cc1C)C(C)(C)CCC2(C)C
Out: 7.32

In: Cool, now Cc1cc2c(cc1C(=O)c1ccc(C(=O)Nc3ccc(O)cc3)cc1)C(C)(C)CCC2(C)C
Out: 6.52

In: Cool, now CC(/C=C/C1(c2cc3c(cc2C)C(C)(C)CCC3(C)C)CC1)=C\C(=O)O
Out: 8.15

In: Cool, now CC1=C(/C=C/C(=C\C=C\C(C)=C\C(=O)O)C(C)C)C(C)(C)CCC1
Out: 7.96

Dear reader, for each entry below, please note its pEC50.
1. C/C(=C/C=C/C(C)=C/C(=O)O)c1cc2c(cc1C)C(C)(C)CCC2(C)C
2. CC1=C(C=CC2CCCCC2/C=C/C(C)=C/C(=O)O)C(C)(C)CCC1 (stereo not shown)

Out:
1. 8.00
2. 6.97

----------
Kindly state pEC50 for each of the entries shown.
targetOrSystem: RXRβ (Mus musculus)
Construct: expressed in transfected cells; host or cells: CV-1 (monkey kidney)
assayMethodText: Co-transfection (cis-trans) assay in CV-1 cells, RXRβ
Assay type: cell-based
experimentalConditions: RXRβ; CV-1 cells, luciferase reporter, 36 h; read-out: Potency
Answers are plain numbers, as −log10 of the molar value.

// solved cases for pEC50 follow
In: Lab note: need pEC50 with RXRβ (Mus musculus) for entry CC1=C(/C=C/C(=C\C=C\C(C)=C\C(=O)O)C(C)C)C(C)(C)CCC1 [Compound 75] , please look it up.
Out: 7.74

In: Cool, now CC1=C(C=CC2CCCCC2/C=C/C(C)=C/C(=O)O)C(C)(C)CCC1 (stereo not shown) [Compound 100]
Out: 7.15

In: Cool, now CC1=C(/C=C/C2(C/C=C/C(C)=C/C(=O)O)CC2)C(C)(C)CCC1 [Compound 110]
Out: 7.15

Next:
In: Lab note: need pEC50 with RXRβ (Mus musculus) for entry CC(/C=C/C=C(\c1ccc2c(c1)C(C)(C)CCC2(C)C)C(C)C)=C\C(=O)O [Compound 123] , please look it up.
Out: 7.68

----------
targetOrSystem: RXRγ (Mus musculus, UniProt P28705)
Construct: expressed in transfected cells; host or cells: CV-1 (monkey kidney)
assayMethodText: Co-transfection (cis-trans) assay in CV-1 cells, RXRγ
Format: cell-based
observedProperty: EC50

In: // EC50 lookup, key: C/C(=C\c1ccc(C(=O)O)cc1)c1ccc2c(c1)C(C)(C)CCC2(C)C [TTNPB, reference compound]
Out: > 10000 nM

Field: next compound
In: // EC50 lookup, key: C=C(c1ccc(C(=O)O)cc1)c1cc2c(cc1Br)C(C)(C)CCC2(C)C
Out: 52 nM
